assay: Toxicity in ip dosed Swiss albino Mus musculus (mouse) assessed as mortality; type: organism-based; details: in vivo
Measurement kind: LD50 (mg/kg)
Answer with a number only, understood to be in mg/kg.

Some solved entries appear below for comparison.
>>> print(df.to_string())
                               mol_smiles  result_units  numeric_result
0  Cc1nc2c(I)cc(I)cc2c(=O)n1Cc1ccc(Br)cc1         mg/kg             565
1  Cc1nc2c(I)cc(I)cc2c(=O)n1Cc1ccc(Cl)cc1         mg/kg             600

Lab note: next compound to report on.
The compound listed as `Cc1nc2c(I)cc(I)cc2c(=O)n1Cc1ccc(F)cc1` shows LD50 equal to 420
